Just for reference, paper PMC6555819 is where these values come from.

Would you mind telling me the reported binding signal of each entry?
# study.target: PPARg:RXRa (Homo sapiens, UniProt P37231;P19793 full;full)
# Sequence (P37231 29-505, chain 1 of 2): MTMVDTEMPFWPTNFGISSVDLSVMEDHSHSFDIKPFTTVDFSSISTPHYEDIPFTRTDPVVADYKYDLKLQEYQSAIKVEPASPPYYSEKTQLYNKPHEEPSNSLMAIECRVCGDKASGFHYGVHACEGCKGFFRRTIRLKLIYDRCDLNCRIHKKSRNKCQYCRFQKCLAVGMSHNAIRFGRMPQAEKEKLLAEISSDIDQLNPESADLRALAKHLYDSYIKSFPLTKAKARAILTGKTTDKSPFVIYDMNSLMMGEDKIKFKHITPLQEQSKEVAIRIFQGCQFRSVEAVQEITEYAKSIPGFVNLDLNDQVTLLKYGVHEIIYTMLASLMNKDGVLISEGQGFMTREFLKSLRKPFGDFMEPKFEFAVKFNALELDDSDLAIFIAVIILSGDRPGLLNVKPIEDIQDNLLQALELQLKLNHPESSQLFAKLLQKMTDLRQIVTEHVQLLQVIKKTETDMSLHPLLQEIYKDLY
# Sequence (P19793 whole entry, chain 2 of 2): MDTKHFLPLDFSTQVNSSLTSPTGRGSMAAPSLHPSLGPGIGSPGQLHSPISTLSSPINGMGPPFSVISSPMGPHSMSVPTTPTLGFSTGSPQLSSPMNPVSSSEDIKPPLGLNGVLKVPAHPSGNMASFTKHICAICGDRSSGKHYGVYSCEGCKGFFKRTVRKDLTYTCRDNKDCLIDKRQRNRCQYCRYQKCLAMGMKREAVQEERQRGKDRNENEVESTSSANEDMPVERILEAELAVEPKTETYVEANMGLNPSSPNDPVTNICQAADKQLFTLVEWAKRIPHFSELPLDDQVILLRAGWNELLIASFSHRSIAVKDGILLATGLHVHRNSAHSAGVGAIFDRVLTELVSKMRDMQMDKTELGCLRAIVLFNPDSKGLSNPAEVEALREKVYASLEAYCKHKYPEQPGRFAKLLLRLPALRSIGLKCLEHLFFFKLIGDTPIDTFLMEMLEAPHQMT
# protocol.description: no ligand; PBM; 180 nM : 90 nM RXRa; PBS pH 7.4, 2% milk, 0.02% Triton X-100, 1 mM DTT, BSA, 0.4 mg/ml salmon testes DNA
# experimental.setup: tags: His kept;His cleaved; copies: 1;1; label: surface-attached array probe

NRC3_wobSeed29_DR1_A23G_o1 (dsDNA) DNA 1: GCGCTTACGGGTCAAAGGTTATGGCATGAATAGAATGCGATTGACAGCGTAGAATGAAGG DNA 2: CCTTCATTCTACGCTGTCAATCGCATTCTATTCATGCCATAACCTTTGACCCGTAAGCGC: 12 PBM z-score against 500 random probes

--- query ---
// sample NRC3_wobSeed39_DR1_A19T_o1 (dsDNA) DNA 1: GCCGAACTAGGTCAAAGGTCAGTGAAAGGCGACGTAGCGATTGACAGCGTAGAATGAAGG DNA 2: CCTTCATTCTACGCTGTCAATCGCTACGTCGCCTTTCACTGACCTTTGACCTAGTTCGGC , its binding signal was 14 PBM z-score against 500 random probes
